# reported pIC50; entries follow
Biological target: HIPK2 (Homo sapiens, UniProt Q9H2X6)
Sequence (Q9H2X6 whole entry): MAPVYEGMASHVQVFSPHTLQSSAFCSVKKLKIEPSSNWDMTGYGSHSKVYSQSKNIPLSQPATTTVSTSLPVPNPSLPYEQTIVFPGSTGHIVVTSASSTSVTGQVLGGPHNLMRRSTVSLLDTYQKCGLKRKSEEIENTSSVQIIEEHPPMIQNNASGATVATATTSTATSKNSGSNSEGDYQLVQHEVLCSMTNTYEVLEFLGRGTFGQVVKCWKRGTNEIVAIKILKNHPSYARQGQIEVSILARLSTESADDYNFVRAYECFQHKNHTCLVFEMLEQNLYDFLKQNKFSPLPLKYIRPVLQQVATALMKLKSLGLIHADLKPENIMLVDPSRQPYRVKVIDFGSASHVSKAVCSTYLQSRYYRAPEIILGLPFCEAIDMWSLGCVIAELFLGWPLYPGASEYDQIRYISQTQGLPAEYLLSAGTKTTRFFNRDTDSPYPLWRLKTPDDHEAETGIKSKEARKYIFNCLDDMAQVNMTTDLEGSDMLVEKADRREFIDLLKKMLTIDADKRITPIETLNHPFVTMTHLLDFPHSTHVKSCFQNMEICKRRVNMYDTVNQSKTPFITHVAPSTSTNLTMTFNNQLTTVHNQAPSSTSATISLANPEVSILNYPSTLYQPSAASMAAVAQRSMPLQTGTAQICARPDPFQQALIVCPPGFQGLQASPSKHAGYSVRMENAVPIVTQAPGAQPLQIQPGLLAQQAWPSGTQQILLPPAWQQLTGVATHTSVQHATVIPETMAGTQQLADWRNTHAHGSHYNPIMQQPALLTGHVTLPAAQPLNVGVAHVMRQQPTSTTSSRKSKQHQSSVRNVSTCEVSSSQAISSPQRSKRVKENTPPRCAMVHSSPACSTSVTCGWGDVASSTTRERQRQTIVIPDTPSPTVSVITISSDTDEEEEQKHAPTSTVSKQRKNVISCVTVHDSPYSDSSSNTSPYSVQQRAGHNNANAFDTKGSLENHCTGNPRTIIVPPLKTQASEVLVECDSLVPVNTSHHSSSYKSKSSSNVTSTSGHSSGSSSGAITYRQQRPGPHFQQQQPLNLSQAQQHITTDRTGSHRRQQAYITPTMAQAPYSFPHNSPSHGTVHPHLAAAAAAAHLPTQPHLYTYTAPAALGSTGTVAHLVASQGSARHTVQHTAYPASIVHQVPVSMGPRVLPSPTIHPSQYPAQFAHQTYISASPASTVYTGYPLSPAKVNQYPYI
Assay: Kinase profiling
Type: biochemical
Conditions: 10 semi-logarithmic dilutions from 50 μM, singlicate; read-out: IC50 HIPK2
Give only the number. pIC50 is defined as minus log10 of concentration in molar units.

compound	result
CC(O)CCN1CCN(c2ccc(Nc3ncc4ccc(=O)n([C@@H]5CC6CCC5C6)c4n3)cc2)CC1 (stereo partly shown)	5.22

Task: Item CCN1CCN(Cc2ccc(Nc3ncc(F)c(-c4cc(F)c5nc(C)n(C(C)C)c5c4)n3)nc2)CC1 [Abemaciclib, reference compound] has what recorded pIC50?
Output: 4.33

Task: Item CC(=O)c1c(C)c2cnc(Nc3ccc(N4CCNCC4)cc3)nc2n([C@@H]2CC3CCC2C3)c1=O (stereo partly shown) has what recorded pIC50?
Output: 6.73

Task: Item CC(O)COC1CCN(c2ccc(Nc3ncc4ccc(=O)n([C@@H]5CC6CCC5C6)c4n3)cc2)CC1 (stereo partly shown) has what recorded pIC50?
Output: 4.83

====

Biological target: CDK1/CycA2 (Homo sapiens)
Sequence (P06493 whole entry): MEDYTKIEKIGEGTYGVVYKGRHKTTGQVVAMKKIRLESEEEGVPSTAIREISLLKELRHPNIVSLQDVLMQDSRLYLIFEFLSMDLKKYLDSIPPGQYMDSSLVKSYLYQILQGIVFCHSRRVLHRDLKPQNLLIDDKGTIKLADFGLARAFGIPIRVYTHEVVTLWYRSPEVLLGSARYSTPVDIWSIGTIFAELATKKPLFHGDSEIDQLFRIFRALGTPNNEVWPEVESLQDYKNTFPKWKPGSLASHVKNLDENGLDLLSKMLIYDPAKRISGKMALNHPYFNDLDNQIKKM
Sequence (P20248 whole entry partner): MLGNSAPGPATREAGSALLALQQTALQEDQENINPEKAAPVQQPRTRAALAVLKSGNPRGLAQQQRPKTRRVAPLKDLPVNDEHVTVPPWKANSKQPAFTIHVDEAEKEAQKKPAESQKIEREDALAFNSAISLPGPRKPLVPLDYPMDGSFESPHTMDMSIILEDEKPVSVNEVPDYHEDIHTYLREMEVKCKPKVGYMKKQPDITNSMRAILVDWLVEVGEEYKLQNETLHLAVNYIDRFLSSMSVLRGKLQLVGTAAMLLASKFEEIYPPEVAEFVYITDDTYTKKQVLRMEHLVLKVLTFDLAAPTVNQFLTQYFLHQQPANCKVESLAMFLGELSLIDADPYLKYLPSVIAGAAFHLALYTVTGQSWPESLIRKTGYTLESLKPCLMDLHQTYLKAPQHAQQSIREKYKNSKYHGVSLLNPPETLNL
Assay: Kinase profiling
Format: biochemical
Settings: 10 semi-logarithmic dilutions from 50 μM, singlicate
measurement kind: pIC50
Give only the number. pIC50 is defined as minus log10 of concentration in molar units.

Guide cases for pIC50, answers given:
molecule	result
CC(O)CCC1CCN(c2ccc(Nc3ncc4ccc(=O)n([C@@H]5CC6CCC5C6)c4n3)cc2)CC1 (stereo partly shown) [PS004]	4.84
O=c1ccc2cnc(Nc3ccc(N4CCC(OCC5(CO)COC5)CC4)cc3)nc2n1[C@@H]1CC2CCC1C2 (stereo partly shown) [PS016]	5.87
CC(O)CCN1CCN(c2ccc(Nc3ncc4ccc(=O)n([C@@H]5CC6CCC5C6)c4n3)cc2)CC1 (stereo partly shown) [PS005]	6.75
O=c1ccc2cnc(Nc3ccc(N4CCNCC4)cc3)nc2n1[C@@H]1CC2CCC1C2 (stereo partly shown) [PS007]	6.68
CC(=O)c1c(C)c2cnc(Nc3ccc(N4CCNCC4)cc3)nc2n([C@@H]2CC3CCC2C3)c1=O (stereo partly shown) [PS010]	5.38
CC(O)COC1CCN(c2ccc(Nc3ncc4ccc(=O)n([C@@H]5CC6CCC5C6)c4n3)cc2)CC1 (stereo partly shown) [PS006]	5.37

Task: Item CC(=O)c1c(C)c2cnc(Nc3ccc(N4CCC(CCCO)CC4)cc3)nc2n([C@@H]2CC3CCC2C3)c1=O (stereo partly shown) [PS008] has what recorded pIC50?
Output: 4.41

Task: Item O=c1ccc2cnc(Nc3ccc(N4CCC(CCCO)CC4)c(F)c3)nc2n1[C@@H]1CC2CCC1C2 (stereo partly shown) [PS003] has what recorded pIC50?
Output: 5.10

Task: Item O=c1ccc2cnc(Nc3ccc(N4CCC(CCCO)CC4)cc3F)nc2n1[C@@H]1CC2CCC1C2 (stereo partly shown) [PS002] has what recorded pIC50?
Output: 4.47

====

Target: HIPK2 (Homo sapiens, UniProt Q9H2X6)
Assay: Kinase profiling
Format: biochemical
Conditions: 10 semi-logarithmic dilutions from 50 μM, singlicate; read-out: IC50 HIPK2
measurement kind: IC50

Guide cases for IC50, answers given:
molecule	test system	IC50
O=c1ccc2cnc(Nc3ccc(N4CCC(OCC5(CO)COC5)CC4)cc3)nc2n1[C@@H]1CC2CCC1C2 (stereo partly drawn) [PS016]	HIPK2 (Homo sapiens, UniProt Q9H2X6)	> 50 µM
O=c1ccc2cnc(Nc3ccc(N4CCNCC4)cc3)nc2n1[C@@H]1CC2CCC1C2 (stereo partly drawn) [PS007]	HIPK2 (Homo sapiens, UniProt Q9H2X6)	5.56 µM
CN(C)C(=O)c1cc2cnc(Nc3ccc(N4CCNCC4)cn3)nc2n1C1CCCC1 [Ribociclib, reference compound]	HIPK2 (Homo sapiens, UniProt Q9H2X6)	0.0397 µM
O=c1ccc2cnc(Nc3ccc(N4CCC(CCCO)CC4)cc3F)nc2n1[C@@H]1CC2CCC1C2 (stereo partly drawn) [PS002]	HIPK2 (Homo sapiens, UniProt Q9H2X6)	> 50 µM

Task: Item CC(=O)c1c(C)c2cnc(Nc3ccc(N4CCC(CCCO)CC4)cc3)nc2n(C2CCCC2)c1=O [PS009] has what recorded IC50?
Output: > 50 µM

Task: Item CC(=O)c1c(C)c2cnc(Nc3ccc(N4CCC(CCCO)CC4)cc3)nc2n([C@@H]2CC3CCC2C3)c1=O (stereo partly drawn) [PS008] has what recorded IC50?
Output: 5.58 µM

Task: Item O=c1ccc2cnc(Nc3ccc(N4CCC(CCCO)CC4)c(F)c3)nc2n1[C@@H]1CC2CCC1C2 (stereo partly drawn) [PS003] has what recorded IC50?
Output: > 50 µM

Task: Item CC(O)CCC1CCN(c2ccc(Nc3ncc4ccc(=O)n([C@@H]5CC6CCC5C6)c4n3)cc2)CC1 (stereo partly drawn) [PS004] has what recorded IC50?
Output: > 50 µM

Task: Item O=c1ccc2cnc(Nc3ccc(N4CCC(CCCO)CC4)cc3)nc2n1C1CC2CCC1C2 (stereo not drawn) [PD-0183812, reference compound] has what recorded IC50?
Output: > 50 µM

====

# reported hepatocyte CLint; entries follow
Assay: Metabolic stability in hepatocytes
Format: in vitro ADME
Conditions: mouse, 60-90 min test, read-out: Metabolic stability, Mouse heptocytes: Clearance

Guide cases for hepatocyte CLint, answers given:
compound	hepatocyte CLint
CC(O)COC1CCN(c2ccc(Nc3ncc4ccc(=O)n([C@@H]5CC6CCC5C6)c4n3)cc2)CC1 (stereo partly shown) [PS006]	75.7 µL/min/1e6 cells
CC(=O)c1c(C)c2cnc(Nc3ccc(N4CCC(CCCO)CC4)cc3)nc2n(C2CCCC2)c1=O [PS009]	67.8 µL/min/1e6 cells
CC(=O)c1c(C)c2cnc(Nc3ccc(N4CCNCC4)cn3)nc2n(C2CCCC2)c1=O [Palbociclib, reference compound]	14.4 µL/min/1e6 cells

Task: Item CC(O)CCC1CCN(c2ccc(Nc3ncc4ccc(=O)n([C@@H]5CC6CCC5C6)c4n3)cc2)CC1 (stereo partly shown) [PS004] has what recorded hepatocyte CLint?
Output: 9.7 µL/min/1e6 cells

====

In what follows, each item is paired with its pIC50 for ERK1 (Homo sapiens).
Give only the number. pIC50 is defined as minus log10 of concentration in molar units.

compound	measurement kind	result
O=c1ccc2cnc(Nc3ccc(N4CCC(CCCO)CC4)cc3)nc2n1C1CC2CCC1C2 (stereo not shown) [PD-0183812, reference compound]	pIC50	4.53
CC(O)CCC1CCN(c2ccc(Nc3ncc4ccc(=O)n([C@@H]5CC6CCC5C6)c4n3)cc2)CC1 (stereo partly shown)	pIC50	4.42
CC(=O)c1c(C)c2cnc(Nc3ccc(N4CCC(CCCO)CC4)cc3)nc2n(C2CCCC2)c1=O	pIC50	4.31
CC(O)COC1CCN(c2ccc(Nc3ncc4ccc(=O)n([C@@H]5CC6CCC5C6)c4n3)cc2)CC1 (stereo partly shown)	pIC50	5.08

Task: # query: pIC50 | item O=c1ccc2cnc(Nc3ccc(N4CCC(CCCO)CC4)cc3F)nc2n1[C@@H]1CC2CCC1C2 (stereo partly shown) | system: ERK1 (Homo sapiens)
Output: 4.32

====

# reported pIC50; entries follow
Biological target: CDK1/CycB1 (Homo sapiens, UniProt P06493)
Sequence (P06493 whole entry): as the sequence (P06493 whole entry) above
Sequence (P14635 whole entry partner): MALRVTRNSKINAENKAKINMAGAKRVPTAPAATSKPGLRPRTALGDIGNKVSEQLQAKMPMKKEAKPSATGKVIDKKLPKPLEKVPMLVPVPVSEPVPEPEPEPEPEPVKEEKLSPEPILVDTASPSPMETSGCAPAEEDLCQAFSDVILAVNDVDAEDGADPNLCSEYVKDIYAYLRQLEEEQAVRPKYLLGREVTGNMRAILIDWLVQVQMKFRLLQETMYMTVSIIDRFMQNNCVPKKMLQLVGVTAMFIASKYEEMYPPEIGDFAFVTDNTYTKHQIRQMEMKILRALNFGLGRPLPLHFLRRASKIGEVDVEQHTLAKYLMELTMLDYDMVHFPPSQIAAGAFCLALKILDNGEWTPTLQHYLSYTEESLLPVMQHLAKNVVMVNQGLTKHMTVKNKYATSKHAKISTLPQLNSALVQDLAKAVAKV
Test: Kinase profiling
Assay type: biochemical
Settings: 10 semi-logarithmic dilutions from 50 μM, singlicate
Give only the number. pIC50 is defined as minus log10 of concentration in molar units.

Guide cases for pIC50, answers given:
compound	pIC50
CC(O)COC1CCN(c2ccc(Nc3ncc4ccc(=O)n([C@@H]5CC6CCC5C6)c4n3)cc2)CC1 (stereo partly shown) [PS006]	5.71
O=c1ccc2cnc(Nc3ccc(N4CCC(CCCO)CC4)c(F)c3)nc2n1[C@@H]1CC2CCC1C2 (stereo partly shown) [PS003]	5.33
O=c1ccc2cnc(Nc3ccc(N4CCC(OCC5(CO)COC5)CC4)cc3)nc2n1[C@@H]1CC2CCC1C2 (stereo partly shown) [PS016]	6.21

Alright, here's another compound for you.
Task: Item CC(=O)c1c(C)c2cnc(Nc3ccc(N4CCC(CCCO)CC4)cc3)nc2n([C@@H]2CC3CCC2C3)c1=O (stereo partly shown) [PS008] has what recorded pIC50?
Output: 6.14

FYI, the data here is from patent US20230042936A1.
